Reported melting point by item:
observed.property: melting point (°C)

- Cc1ccc(S(=O)(=O)N2C/C(=C\c3ccc(F)cc3)C(=O)/C(=C/c3ccc(F)cc3)C2)cc1: 204
- CCCCn1cc(CN2CC(=Cc3ccc(C(C)C)cc3)C(=O)C(=Cc3ccc(C(C)C)cc3)C2)nn1 [13b]: 145
- CCCCc1ccc(C=C2CN(Cc3cn(CCCC)nn3)CC(=Cc3ccc(CCCC)cc3)C2=O)cc1 [16b]: 136
- CCCCCn1cc(CN2CC(=Cc3ccc(CC)cc3)C(=O)C(=Cc3ccc(CC)cc3)C2)nn1 [12c]: 156
- CC(C)c1ccc(/C=C2\CN(S(=O)(=O)c3ccccc3)C/C(=C\c3ccc(C(C)C)cc3)C2=O)cc1: 170
- O=C1/C(=C/c2ccc(F)cc2)CN(S(=O)(=O)c2ccccc2)C/C1=C\c1ccc(F)cc1: 181
- C#CCN1CC(=Cc2ccc(CCC)cc2)C(=O)C(=Cc2ccc(CCC)cc2)C1 [10e]: 96
- Cc1ccc(/C=C2\CN(S(=O)(=O)c3ccc(C)cc3)C/C(=C\c3ccc(C)cc3)C2=O)cc1: 187
- O=C1/C(=C/c2ccc(Br)cc2)CN(S(=O)(=O)c2ccccc2)C/C1=C\c1ccc(Br)cc1: 247
- CCCn1cc(CN2CC(=Cc3ccc(C(C)C)cc3)C(=O)C(=Cc3ccc(C(C)C)cc3)C2)nn1 [13a]: 144
- CCc1ccc(/C=C2\CN(S(=O)(=O)c3ccccc3)C/C(=C\c3ccc(CC)cc3)C2=O)cc1: 165
